- Tested on: RPMI-8226 leukemia
- Measurement Protocol: NCI tumour cell line growth inhibition, 48 h
Listed here: items and their measured log10(TGI).
On a log10 scale: recorded TGI, unit µM.

Query block: Item `O=C1/C(=C/c2ccc(C(F)(F)F)cc2)COc2ccc(O)cc21` : provide log10(TGI)
Result block: -0.05

Query block: Give log10(TGI) for `CC(=O)[CH-]C(=O)c1ccccc1.CC(=O)[CH-]C(=O)c1ccccc1.CC[O-].O=C1C=C([O-])C(=O)c2ccccc21.[Ti+4]`
Result block: 1.93

Query block: Please indicate log10(TGI) recorded for `O=C(Nc1ccc([N+](=O)[O-])cc1)c1cc2ccccc2cc1O`
Result block: -0.14

---

- Tested on: EKVX NSCLC
- Measurement Protocol: NCI tumour cell line growth inhibition, 48 h
Measurement Type: TGI

1) Cn1c(=O)c2[nH]cnc2n(CC(=O)O)c1=O
> 100 µM
2) COc1ccc2nc(C3=CN(C4OC(CO)C(O)C(O)C4O)C4C=CC=CC34)sc2c1 (stereo not drawn)
> 100 µM

Query block: Please list TGI recorded for the compound `COc1ccc(NCc2c(O)ccc3ccccc23)cc1`
Result block: > 100 µM

Query block: Kindly indicate its recorded TGI. Item: `CCOC(=S)SC/C(=N\OC(C)(C)OC)c1ccccc1`
Result block: > 100 µM

Query block: Answer with the recorded TGI for the compound listed here: `O=C(/C=C\c1ccc(OCCCCCC[P+](c2ccccc2)(c2ccccc2)c2ccccc2)cc1)c1ccc2c(c1)OCCO2`
Result block: 6.72 µM

Query block: Indicate its recorded TGI; the compound in question is COc1cc(C2c3cc4c(cc3OC(N3CCOCC3)C2C)OCO4)cc(OC)c1OC (stereo not drawn)
Result block: > 100 µM

Query block: Please report the measured TGI for CC1(C)OCC(C2OC(=O)C(OCc3ccccc3)=C2OCc2ccccc2)O1 (stereo not drawn)
Result block: > 100 µM

Query block: Tell me measured TGI for `CCOC(=O)c1ccc2c(=O)n3c(C(=O)OCC)ccc3c(=O)n12` please.
Result block: > 100 µM

Query block: Quickly give me recorded TGI for `CCOC(CN(C)C(=O)OCC(Cl)(Cl)Cl)OCC`
Result block: > 100 µM

Query block: // fetch TGI given entry `CC(=O)NNc1nc(C)c(C(/C=C/c2ccc(Cl)cc2)=N/NC(=S)NN)s1`
Result block: > 100 µM

Query block: Tell me TGI reported for `CC(C)(CO)NC(=O)c1cccc(C(=O)NC(C)(C)CO)c1Br`
Result block: > 100 µM

Query block: Give the reported value of TGI for this record: `COc1cccc2cc(N(C)c3nc(C)nc4ccsc34)ccc12`
Result block: 21.1 µM

Query block: Tell me its TGI given `COc1cc(C(=O)/C=C/c2c(-c3cccs3)nc3ccccn23)cc(OC)c1OC` as the entry.
Result block: > 100 µM

Query block: Given the compound COC(=O)C(C(=O)C(=O)Nc1ccc(C)cc1C)c1nc2ccc([N+](=O)[O-])cc2[nH]c1=O (stereo not drawn) , write its reported TGI.
Result block: > 100 µM

---

- Tested on: SR leukemia
- Measurement Protocol: NCI tumour cell line growth inhibition, 48 h
Measurement Type: TGI

1. COc1cc(OC)c(NC2=NCCO2)cc1Cl
83.2 µM

Query block: Consider the molecule CC(=O)O[C@@H]1CC2[C@@H](CCC3Cc4nc5c(nc4C[C@@]32C)CC2CC[C@@H]3C(CC[C@@]4(C)C3CC[C@@H]4C(C)CCCC(C)C)[C@@]2(C)C5)C2C[C@@H]3OC4(CCC(C)CO4)C(C)[C@@H]3[C@]21C (some centres not stated) . State its measured TGI.
Result block: > 100 µM

Query block: For `CCN(CC)CCNC(=O)c1cc2cc(NC(=O)c3cc4cc(NC(=O)c5cc6cc([N+](=O)[O-])ccc6[nH]5)ccc4[nH]3)ccc2[nH]1` , write its TGI.
Result block: 14.4 µM

Query block: Kindly indicate its recorded TGI. Item: `CCc1c(-c2coc(CC/C(C)=C/c3ccccc3)n2)oc(OC)c(C)c1=O`
Result block: 29.3 µM

Query block: Give recorded TGI. `C[n+]1c(-c2ccc(/C=N/Nc3n[nH]c(=S)n3N/N=C/c3ccc(-c4cn5ccccc5[n+]4C)cc3)cc2)cn2ccccc21`
Result block: > 100 µM

Query block: Return TGI for the following molecule: CCC(c1nc2ccccc2c(=O)n1NC(=O)C(C)(C)C)C1(O)CCCCC1 (configuration not stated)
Result block: > 100 µM

Query block: // Input: `CNc1nc(=O)c(C#N)c(-c2ccc(C)cc2)s1` . Output its TGI only.
Result block: > 100 µM
